growth listing for selected compounds.
test system: HOP-92 NSCLC; assay: NCI-60 one-dose screen, 48 h (100 = growth as untreated, 0 = no growth, -100 = all killed); settings: 10 µM unless noted
This is part of a sample that, as a whole, favours compounds with a hit. Of some 83,000 tested, about 20% had one in any assay.
quantity.kind: growth (%)

O=S(=O)(NCCCNc1nccc(-c2[nH]c(-c3ccccc3)nc2-c2ccc(F)c(O)c2)n1)c1cccc(F)c1 | 94.6
Cn1c(SCC(=O)c2ccco2)nc2ccccc2c1=O | 90.6
Cn1cc(-c2nn3cc(-c4ccncc4)nc3s2)c2cc(F)ccc21 | 49.2
O=C(N/N=C/c1cc2ccccc2nc1Cl)c1cc(-c2nc3ccccc3[nH]2)nc2ccccc12 | 72.4
COc1ccc(-c2cc(-c3ccc(N(C)C)cc3)n3c(n2)nc2ccccc23)cc1 | -5.95
CCN(CC)c1ccc(/C=N/NC(=O)c2ccc(S(N)(=O)=O)cc2)cc1 | 72.3
Cc1[nH]c(C(=O)Nc2ccccc2OCc2cccc(C(=O)NC3CCNC3)c2)c(Cl)c1Cl (stereo not given) | 70.2
O=C(CCl)Nc1ccc(NC(=O)c2cc(Cl)ccc2O)c(Cl)c1 | 127
Cc1ccc(C(=O)CSc2nc3ccccc3c(=O)n2C)cc1 | 79.6
NC1CC2(CCN(c3cnc(C(=O)Nc4cc(F)cc5cccnc45)cn3)CC2)C1 | 79.7
COc1cc2cc(Oc3ccc(NC(=O)Nc4ccc(F)c(C(F)(F)F)c4)cc3)c(C)nc2cc1OCCN(C)C | 69.8
CC1(C)C=Cc2cc(/C(N)=N/C(N)=N/c3nc4ccccc4s3)ccc2O1 | 94.2
CC(C)Sc1nc(-c2ccccc2)c(C#N)c(N2CCOCC2)n1 | 73.2
CN(C)c1ccc(-c2cc(-c3c[nH]c4ccccc34)nc(N)c2C#N)cc1 | 27.5
CC(C)[C@H]1c2[nH]c3ccccc3c2C[C@H]2C(=O)N(CCCCCCC(=O)NO)CC(=O)N12 | 74.9
Clc1cccc(/C=N/Nc2nc(N/N=C/c3cccc(Cl)c3)nc(N3CCOCC3)n2)c1 | 65.4
Clc1ccc2[nH]cc(-c3cncn3CCc3ccc4c(c3)OCO4)c2c1 | 9.07
C#CCOc1ccc(/C=N/Nc2nc(-c3ccc(OC)cc3)cs2)cc1 | 68.6
Clc1cccc(/C=N/Nc2nc(N/N=C/c3cccc(Cl)c3)nc(N3CCCCC3)n2)c1 | 108
COc1ccc(/C=N/NC(=O)CSc2nc(-c3cnccn3)cc(-c3cccs3)c2C#N)cc1OC | 37.8

###

test system: CAKI-1 renal; test: NCI-60 one-dose screen, 48 h (100 = growth as untreated, 0 = no growth, -100 = all killed); conditions: 10 µM unless noted
About 83,000 compounds went through this panel and 20% of them were active in at least one assay; those are over-represented in the sample as a whole. Calls of active or inactive are those of the source. How the source made its calls: active means growth percent below 10; inactive means the rest.
Known growth of a selection of compounds
quantity.kind: growth

COc1cc2oc(-c3cccc(NC(=O)c4cccc([N+](=O)[O-])c4)c3)cc(=O)c2c(OC)c1OC | 49.7% (inactive)
NC1CC2(CCN(c3cnc(C(=O)Nc4cc(F)cc5cccnc45)cn3)CC2)C1 | 79.3% (inactive)
COc1cc(C(C)=C(c2ccc(OCCN(C)C)cc2)c2ccc(OCCN(C)C)cc2)ccc1F | 101% (inactive)
Cc1ccc(C(=O)CSc2nnc(-c3ccc(-c4ccc(Cl)cc4)nc3C)o2)cc1 | 95.8% (inactive)
CC(C)NC(=O)c1cc(-c2ccc(NC(=O)Nc3ccc(F)c(C(F)(F)F)c3)cc2)nc2cccnc12 | 97.7% (inactive)
